target: MCT4 (Homo sapiens (Human)); experiment: Assay 3: MCT4-mediated lactate transport in MDA-MB-231 breast cancer cells; assay type: cell-based; details: MDA-MB-231 cells; lactate transport
Sequence (O15427 whole entry, looked up): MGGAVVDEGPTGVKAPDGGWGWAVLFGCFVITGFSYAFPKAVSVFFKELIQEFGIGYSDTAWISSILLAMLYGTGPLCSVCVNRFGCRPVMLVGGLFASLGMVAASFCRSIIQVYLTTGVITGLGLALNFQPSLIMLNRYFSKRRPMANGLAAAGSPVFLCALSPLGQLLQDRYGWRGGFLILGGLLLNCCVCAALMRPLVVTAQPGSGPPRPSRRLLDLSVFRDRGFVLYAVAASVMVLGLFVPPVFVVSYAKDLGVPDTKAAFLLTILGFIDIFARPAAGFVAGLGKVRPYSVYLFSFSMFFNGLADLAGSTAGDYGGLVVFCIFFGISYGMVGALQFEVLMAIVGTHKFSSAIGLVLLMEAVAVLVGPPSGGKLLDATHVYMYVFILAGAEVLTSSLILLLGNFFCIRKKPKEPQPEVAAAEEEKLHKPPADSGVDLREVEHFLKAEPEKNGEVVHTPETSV
Sequence (P35613 whole entry partner, looked up): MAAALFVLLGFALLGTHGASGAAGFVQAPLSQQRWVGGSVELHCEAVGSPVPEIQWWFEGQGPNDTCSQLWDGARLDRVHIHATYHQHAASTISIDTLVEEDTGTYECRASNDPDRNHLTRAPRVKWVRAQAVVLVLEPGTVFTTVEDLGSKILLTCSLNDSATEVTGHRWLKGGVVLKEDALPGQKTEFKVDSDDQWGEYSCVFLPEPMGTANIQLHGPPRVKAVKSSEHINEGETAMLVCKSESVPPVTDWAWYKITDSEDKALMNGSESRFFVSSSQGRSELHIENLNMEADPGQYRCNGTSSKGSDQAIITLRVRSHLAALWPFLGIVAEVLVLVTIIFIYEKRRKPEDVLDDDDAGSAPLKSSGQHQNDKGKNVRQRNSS
Each entry below carries its recorded IC50.
Reply with just the number (in nM).

The cases that follow already have their IC50 on record.
1) CC[C@@](C)(OCc1cc(-c2cccc(OC3CC3)c2)n(-c2cccc3cnn(C)c23)n1)C(=O)O [Example 217]	8.7
2) CN(C)c1ccccc1Cn1nc(COC(C)(C)C(=O)O)cc1-c1cccc(OC2CC2)c1 [Example 214]	6
3) CC(C)(OCc1cc(-c2cccc(OC3CCC3)c2)n(-c2ccccc2F)n1)C(=O)O [Example 159]	11

Provide IC50 value for the following compound: CC(C)(OCc1cc(-c2cccc(OC3CC3)c2)n(-c2ccccc2C(F)(F)F)n1)C(=O)O [Example 190]
7.8

Determine from records and report IC50 for CCOc1ccccc1-n1nc(COC(C)(C)C(=O)O)cc1-c1cc(OC)cc(OC)c1 [Example 164]
43

Please give the documented IC50 of CCn1nnc2ccc(-c3cc(COC(C)(C)C(=O)O)nn3Cc3ccccc3Cl)cc21 [Example 261]
17

Provide only the value of recorded IC50 for Cn1ncc2cccc(Cn3nc(COC(C)(C)C(=O)O)cc3-c3cccc(OCC(C)(C)C)c3)c21 [Example 256]
2.6

Report IC50 for CCn1ncc2cccc(-n3nc(COC(C)(C)C(=O)O)cc3-c3cccc(OCC(C)(C)C)c3)c21 [Example 172]
0.59

Return value of IC50 for input CC(C)(OCc1cc(-c2cccc(OC3CC3)c2)n(-c2ccccc2F)n1)C(=O)O [Example 181] , no commentary.
20

Quote IC50 reported for COc1ccccc1-n1nc(COC(C)(C)C(=O)O)cc1-c1cccc(OC(C)C)c1 [Example 113] please.
6.7

Determine from records and report IC50 for COc1ccccc1-n1nc(COC(C)(C)C(=O)O)cc1-c1cccc(OC2CC2)c1 [Example 112]
29

The measurements presented in this section are drawn from patent US10214492B2.
